Source: patent US9341616B2

Here, each record is paired with measured S/N data.
TARGET_UNDER_TEST: hT1R2/mT1R3 (UniProt Q8TE23+Q925D8)
Construct: expressed in transfected cells; host or cells: HEK293E
Sequence (Q8TE23 20-839): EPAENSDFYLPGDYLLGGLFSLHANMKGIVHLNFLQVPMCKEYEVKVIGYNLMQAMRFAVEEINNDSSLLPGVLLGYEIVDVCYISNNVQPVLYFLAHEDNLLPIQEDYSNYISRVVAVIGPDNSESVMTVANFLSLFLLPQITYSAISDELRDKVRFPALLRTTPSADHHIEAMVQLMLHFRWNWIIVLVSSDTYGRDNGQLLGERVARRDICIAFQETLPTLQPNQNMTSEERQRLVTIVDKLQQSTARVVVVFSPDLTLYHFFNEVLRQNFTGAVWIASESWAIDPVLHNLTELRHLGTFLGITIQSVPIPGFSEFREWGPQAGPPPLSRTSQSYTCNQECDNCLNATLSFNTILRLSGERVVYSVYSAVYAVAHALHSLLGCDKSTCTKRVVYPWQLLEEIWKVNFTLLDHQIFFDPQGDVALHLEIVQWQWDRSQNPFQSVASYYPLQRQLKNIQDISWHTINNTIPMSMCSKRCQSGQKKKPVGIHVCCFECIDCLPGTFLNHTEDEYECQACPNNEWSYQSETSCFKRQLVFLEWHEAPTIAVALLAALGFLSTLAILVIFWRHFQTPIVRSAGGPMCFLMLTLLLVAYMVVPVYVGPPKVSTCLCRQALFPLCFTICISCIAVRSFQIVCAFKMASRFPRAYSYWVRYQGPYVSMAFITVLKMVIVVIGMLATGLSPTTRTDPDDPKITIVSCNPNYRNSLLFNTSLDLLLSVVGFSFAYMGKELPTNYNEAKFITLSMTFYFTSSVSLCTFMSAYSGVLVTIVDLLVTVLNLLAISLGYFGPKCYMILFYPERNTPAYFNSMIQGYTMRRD
Sequence (Q925D8 21-858): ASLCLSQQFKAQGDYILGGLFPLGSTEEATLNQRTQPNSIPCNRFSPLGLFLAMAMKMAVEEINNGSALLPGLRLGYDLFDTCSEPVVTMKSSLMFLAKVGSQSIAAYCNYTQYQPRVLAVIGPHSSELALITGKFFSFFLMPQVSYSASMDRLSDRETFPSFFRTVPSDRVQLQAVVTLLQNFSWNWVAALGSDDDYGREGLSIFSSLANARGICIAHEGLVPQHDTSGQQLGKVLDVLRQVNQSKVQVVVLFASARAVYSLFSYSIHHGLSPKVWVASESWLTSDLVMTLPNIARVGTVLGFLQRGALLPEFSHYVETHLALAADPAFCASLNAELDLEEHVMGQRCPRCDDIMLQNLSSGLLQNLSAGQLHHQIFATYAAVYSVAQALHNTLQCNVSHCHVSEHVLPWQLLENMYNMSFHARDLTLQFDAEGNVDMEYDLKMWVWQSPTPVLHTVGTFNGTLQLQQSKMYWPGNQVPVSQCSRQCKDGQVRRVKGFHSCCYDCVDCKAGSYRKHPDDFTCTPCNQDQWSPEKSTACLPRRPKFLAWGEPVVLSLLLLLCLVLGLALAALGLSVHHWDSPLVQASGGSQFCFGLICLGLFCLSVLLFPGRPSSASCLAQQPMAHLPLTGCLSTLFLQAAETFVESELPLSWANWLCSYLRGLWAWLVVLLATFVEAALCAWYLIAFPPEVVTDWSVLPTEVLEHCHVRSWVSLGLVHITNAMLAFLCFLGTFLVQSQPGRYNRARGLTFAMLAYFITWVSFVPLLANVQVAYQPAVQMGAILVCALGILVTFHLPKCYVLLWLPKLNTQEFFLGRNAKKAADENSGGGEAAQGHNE
EXPERIMENT_DESCRIPTION: Intracellular calcium assay (ΔF/F, S/N ratio) in HEK293E cells expressing hT1R2 and mT1R3 with Gα15-trans48LD
Type: cell-based, human/mouse
MEASUREMENT_SETUP: Table 3, genes hT2/mT3 (hT1R2, mT1R3)
Residues, ends and D or L forms follow the SMILES beside them.
Give a plain numeric answer without units written out.

Some molecules with recorded S/N:
COC(=O)[C@H](Cc1ccccc1)NC(=O)[C@H](CC(=O)O)NCCC(C)(C)C ... 3.4
C[C@H](NC(=Nc1ccc(C#N)cc1)NCC(=O)O)c1ccccc1 ... 3.9
COC(=O)[C@H](Cc1ccccc1)NC(=O)[C@H](CC(=O)O)NCCCc1ccc(OC)c(O)c1 ... 4.6
OC[C@H]1O[C@@](CO)(O[C@H]2O[C@H](CO)[C@@H](O)[C@H](O)[C@H]2O)[C@@H](O)[C@@H]1O ... 2.4
COC(=O)[C@H](Cc1ccccc1)NC(=O)[C@@H](N)CC(=O)O [Aspartame, aspartame] (HELM PEPTIDE1{D.F.[CO[*:1]]}$$$$V2.0) ... 2.3
CC1=CC(=O)NS(=O)(=O)O1 ... 2.4
OC[C@H]1O[C@H](O[C@]2(CCl)O[C@H](CCl)[C@@H](O)[C@@H]2O)[C@H](O)[C@@H](O)[C@H]1Cl ... 4.0

Let us examine a further case.
Consider O=C1NS(=O)(=O)c2ccccc21.[Na] [Saccharin Na, sodium saccharin] . Its measured S/N is 2.8
